assay: AUC in Wistar rat at 10 mg/kg, po; type: ADME, organism-based; details: in vivo
measurement name: AUC (ng·h/mL)
Number only, in ng·h/mL; omit the unit.

Challenge: Item under review: C/C(=C\COc1ccccc1CN(C)C(=O)c1ccc(-c2ccco2)cc1)CCC(=O)O . Reported AUC?
Response given: 12500

---

assay: Drug metabolism in human hepatocytes assessed as acyl glucoronidation at 10 […] after 30 to 120 mins by LC-MS analysis; format: ADME, cell-based, Hepatocyte
measurement name: Drug metabolism

                                 smiles_str           test_value
0  CN(Cc1ccccc1OCCCCC(C)(C)C(=O)O)C(=O)c1ccc(-c2ccco2)cc1  Metabolite_Detected
1  C/C(=C\CCCOc1ccccc1CN(C)C(=O)c1ccc(-c2ccco2)cc1)C(=O)O  Metabolite_Detected
2  CN(Cc1ccccc1OCCC/C=C/C(=O)O)C(=O)c1ccc(-c2ccco2)cc1  Metabolite_Detected
